Data credit: patent US20230167108A1

experiment: Rat PK study: concentration of compound in large intestine tissue and plasma; assay type: in vivo; conditions: male, rat, large intestine tissue / plasma; 3 mg/kg oral, non-fasted SD rats; read-out: C/P: ratio of Colon and Plasma
test.readout: Kp

Inquiry: Can you look up the measured Kp of Cn1c(C(=O)O)cnc1CN1CC[C@H](n2c(=O)n(-c3ccc(-c4ccc(C(=O)O)cc4)nc3)c3cccnc32)C1 [Compound 1] for me?
Reply text: > 164

---

test: Rat PK study: concentration of compound in large intestine tissue and plasma; type: in vivo; conditions: male, rat, plasma; 3 mg/kg oral, non-fasted SD rats; read-out: Cmax: maximum plasma concentration of the test compound
test.readout: Cmax (ng/mL)
Write the number in ng/mL without appending the unit.

Inquiry: Can you look up the measured Cmax of Cn1c(C(=O)O)cnc1CN1CC[C@H](n2c(=O)n(-c3ccc(-c4ccc(C(=O)O)cc4)nc3)c3cccnc32)C1 for me?
Reply text: 1
